- Tested on: UO-31
- Protocol: NCI screening panel, UO-31 (Renal Cancer)
- Assay type: cell-based, human
Values of Log10TGI50 strictly less than -5 map to 1 (yes), and values of at least -5 map to 0 (no).

See these solved cases before continuing.
INSERT INTO measurements (molecule, qualitative_label) VALUES
  ('CC(C)C[C@H](NC(=O)[C@H](Cc1ccccc1)NC(=O)[C@H](COC(F)F)NC(=O)[C@H](COC(F)F)NC(=O)CN1CCOCC1)C(=O)[C@@]1(C)CO1 [Example 11]', '1 (yes)'),
  ('CC(C)C[C@H](NC(=O)[C@H](COC(F)F)NC(=O)CN1CCOCC1)C(=O)N[C@@H](Cc1ccccc1)C(=O)N[C@@H](CC(C)C)C(=O)[C@@]1(C)CO1 [Example 2]', '1 (yes)'),
  ('CC(C)C[C@H](NC(=O)[C@H](COC(F)F)NC(=O)CN1CCOCC1)C(=O)N[C@@H](COC(F)F)C(=O)N[C@@H](Cc1ccccc1)C(=O)[C@@]1(C)CO1 [Example 4]', '1 (yes)');

Qu. Item CC(C)C[C@H](NC(=O)[C@H](COC(F)F)NC(=O)CN1CCOCC1)C(=O)N[C@@H](Cc1ccccc1)C(=O)N[C@@H](Cc1ccccc1)C(=O)[C@@]1(C)CO1 [Example 3] : Log10TGI50 beneath -5, strictly?
Ans. 1 (yes)

Qu. Item CC(C)C[C@H](NC(=O)[C@H](COC(F)F)NC(=O)[C@H](COC(F)F)NC(=O)[C@H](CCc1ccccc1)NC(=O)CN1CCOCC1)C(=O)[C@@]1(C)CO1 [Example 7] : Log10TGI50 beneath -5, strictly?
Ans. 1 (yes)

Qu. Item CC(C)C[C@H](NC(=O)[C@H](COC(F)F)NC(=O)[C@H](COC(F)F)NC(=O)[C@H](COC(F)F)NC(=O)CN1CCOCC1)C(=O)[C@@]1(C)CO1 [Example 17] : Log10TGI50 beneath -5, strictly?
Ans. 0 (no)
